- Experimental Target: Schistosoma mansoni thioredoxin glutathione reductase (TGR) (UniProt Q962Y6)
- Experimental Details: qHTS Assay for the Inhibitors of Schistosoma Mansoni Peroxiredoxins; note: nearly all actives have a fitted effect of over 60% in size
- Measurement Conditions: purified TGR, DTNB reduction, TNB absorbance 405 nm; series mostly up to 114 µM
Hit rate of the full screen: of about 360,000 compounds, about 11,000 (3.1%) were called active. Not shown: some 4% with an inconclusive outcome. Calls come from the whole dose curve; as a rule, active = well fitted inhibition curve with a large enough effect; inconclusive = small, poorly fitted or top-dose-only effect; inactive = no such curve, though single readings can be large or run the other way. Many of the other results were omitted from the sample, so actives are more common in it than they were.
Labels: 1 (active), -1 (inactive)

>  <Compound>
Cc1ccc(Cl)cc1NC(=O)C(C)n1nnc2sc(-c3ccccc3)cc2c1=O (stereo not given)

>  <Assigned Category>
-1

$$$$
>  <Compound>
CCOC(=O)c1oc2c(CN3CCN(CCO)CC3)c(O)c(CC)cc2c(=O)c1-c1nc2ccccc2s1

>  <Assigned Category>
-1

$$$$
>  <Compound>
COC(=O)c1ccc(CSc2nnc(N)s2)o1

>  <Assigned Category>
-1

$$$$
>  <Compound>
COC(=O)C1=C(c2ccc(F)cc2OCc2ccccc2)C[C@@H]2CC[C@H]1N2C(=O)NCc1ccc(OC)c(OC)c1

>  <Assigned Category>
-1

$$$$
>  <Compound>
COc1ccc(CNC(=O)Cn2nnc(-c3ccc(S(C)(=O)=O)cc3)n2)cc1

>  <Assigned Category>
-1

$$$$
>  <Compound>
Cc1ccc(C)n1-c1nnc(N2CCC(C(=O)NCc3ccccc3Cl)CC2)s1

>  <Assigned Category>
-1

$$$$
>  <Compound>
CCOC(=O)c1c(S(=O)(=O)N2CCC(C(=O)NCc3ccccc3OC)CC2)c(C)n(C)c1C

>  <Assigned Category>
-1

$$$$
>  <Compound>
Cc1cc(C)n2nc(SCC(N)=O)nc2n1

>  <Assigned Category>
-1

$$$$
>  <Compound>
COc1ccc(C(C)=O)cc1CSc1nc2nc(C)cc(C)n2n1

>  <Assigned Category>
1

$$$$
>  <Compound>
CC(C)(C)c1ccc(/C=C2\Oc3c(ccc(O)c3CN3CCN(CCO)CC3)C2=O)cc1

>  <Assigned Category>
1

$$$$

Data origin, for the record: PubChem BioAssay AID485364
